Source: ChEMBL document CHEMBL1201862

target: Corticotropin-releasing factor receptor 2/Corticotropin-releasing factor-binding protein (Homo sapiens, UniProt P24387+Q13324); assay: activators of CRF receptor 2 with binding protein – uHTS hits, confirmation (AID 602473); format: functional; details: read-out: EC50_Mean
Sequence (Q13324 whole entry): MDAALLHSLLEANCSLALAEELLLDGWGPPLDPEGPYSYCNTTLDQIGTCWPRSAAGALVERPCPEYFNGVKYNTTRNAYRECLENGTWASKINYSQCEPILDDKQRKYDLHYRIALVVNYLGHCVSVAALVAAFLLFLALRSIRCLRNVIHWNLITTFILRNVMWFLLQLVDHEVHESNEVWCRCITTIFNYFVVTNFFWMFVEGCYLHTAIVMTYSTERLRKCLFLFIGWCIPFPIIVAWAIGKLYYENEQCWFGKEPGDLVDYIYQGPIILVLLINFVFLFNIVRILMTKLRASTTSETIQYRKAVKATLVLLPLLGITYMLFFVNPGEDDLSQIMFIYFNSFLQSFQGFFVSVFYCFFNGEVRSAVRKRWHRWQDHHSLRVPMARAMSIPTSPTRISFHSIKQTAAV
Sequence (P24387 whole entry): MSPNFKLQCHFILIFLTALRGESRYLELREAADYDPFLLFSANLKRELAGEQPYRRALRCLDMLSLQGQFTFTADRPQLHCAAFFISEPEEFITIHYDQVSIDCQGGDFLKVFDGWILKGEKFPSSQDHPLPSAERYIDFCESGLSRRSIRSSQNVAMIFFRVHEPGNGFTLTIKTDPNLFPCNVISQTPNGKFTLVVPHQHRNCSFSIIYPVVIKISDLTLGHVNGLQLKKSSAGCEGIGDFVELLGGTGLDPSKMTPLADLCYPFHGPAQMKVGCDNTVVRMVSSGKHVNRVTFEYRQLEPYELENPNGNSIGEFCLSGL
Activity calls are given as the source filed them. Cut-off read from the data, not from the text of the source: actives have a measured EC50 and inactives only a lower limit.
Output constraint: value belongs to active, inactive

Sample answers from the record:
>  <Compound>
CC1(C)CC(=O)C(C2C3=C(CC(C)(C)CC3=O)Oc3ccc4ccccc4c32)C(=O)C1 (configuration not stated)

>  <Category Label>
active

$$$$
>  <Compound>
N#Cc1c(Cl)nc2c(c1C#N)CCCC2

>  <Category Label>
inactive

$$$$
>  <Compound>
Cc1nc(CNS(=O)(=O)c2ccc3ccccc3c2)cs1

>  <Category Label>
inactive

$$$$
>  <Compound>
NS(=O)(=O)c1ccc(NC(S)=Nc2ccc(F)c(F)c2)cc1

>  <Category Label>
inactive

$$$$
>  <Compound>
CCN1C(=O)c2cccc3c(S(=O)(=O)Nc4ccccc4OC)ccc1c23

>  <Category Label>
active

$$$$
>  <Compound>
COc1ccc(C(=O)NCC(=O)N2CCN(C(=O)c3ccco3)CC2)cc1

>  <Category Label>
inactive

$$$$

We now examine a further compound.
# input Can you look up the reported call for COc1ccc(S(=O)(=O)N2CCCCCC2)cc1C(=O)NCCc1ccccc1 for me?
# output inactive
